# target_or_test_system: CCK-A receptor (Rattus norvegicus, UniProt P30551)
# Sequence (P30551 whole entry): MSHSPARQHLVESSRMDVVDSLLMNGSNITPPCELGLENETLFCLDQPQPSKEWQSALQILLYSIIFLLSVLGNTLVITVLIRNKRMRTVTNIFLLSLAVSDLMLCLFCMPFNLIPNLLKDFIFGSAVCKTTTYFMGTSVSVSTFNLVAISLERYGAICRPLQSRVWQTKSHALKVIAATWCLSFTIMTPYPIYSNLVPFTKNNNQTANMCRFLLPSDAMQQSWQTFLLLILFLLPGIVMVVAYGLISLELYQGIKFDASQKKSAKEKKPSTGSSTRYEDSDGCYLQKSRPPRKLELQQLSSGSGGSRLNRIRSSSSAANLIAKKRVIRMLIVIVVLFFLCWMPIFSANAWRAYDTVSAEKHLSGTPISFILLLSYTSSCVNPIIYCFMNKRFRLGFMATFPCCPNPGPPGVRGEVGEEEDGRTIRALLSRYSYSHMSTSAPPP
# test_description: displacement of ^125 I-CCK from rat pancreas (CCK-A receptor binding)
# condition_set: ^125 I-CCK, rat pancreas (CCK-A); read-out: CCK receptor binding IC50, ^125 I-CCK Pancreas
Counter-ions that a name gives are not always drawn.
endpoint_label: pIC50
Schema: pIC50 number; meaning minus log10 of the concentration expressed in molar units.

Recorded results for 2 molecules are shown here.
Cc1cccc(NC(=O)NC2N=C(C3CCNCC3)c3ccccc3N(CC(C)C)C2=O)c1 (stereo not drawn) [Example 9, trifluoroacetic acid salt] | 5.57
CN1C(=O)C(NC(=O)Nc2ccc3c(c2)CCC3)N=C(C2CCC(C)(C)CCN2)c2ccccc21 (single isomer, unassigned) [Example 7, hydrochloride] | 5.19

Here is the next item to consider.
# input Entry Cc1cccc(NC(=O)NC2N=C(C3CCN(C)CC3)c3ccccc3N(CC(C)C)C2=O)c1 (stereo not drawn) has what pIC50?
# output 5.53
